Value source: the supplement of paper PMC12420376

test system: OVCAR8; experiment: drug sensitivity score (DSS2) on cancer cell count; higher = more sensitive; extreme values may be limits of the assay; settings: co-cultured fibroblast: BJHTERT; 72 h
PARAMETER: drug sensitivity score (DSS)
Unit DSS implied. Number only.

Worked examples, 3 compounds total:
In [3]: df
Out[3]:
                              record_smiles  unit_tag  measured_result
0  CC(C)C[C@H](NC(=O)[C@H](Cc1ccccc1)NC(=O)c1cnccn1)B(O)O       DSS             17.3
1  CCN1CCN(Cc2ccc(Nc3ncc(F)c(-c4cc(F)c5nc(C)n(C(C)C)c5c4)n3)nc2)CC1       DSS              9.4
2  Nc1nc(F)nc2c1ncn2[C@@H]1O[C@H](CO)[C@@H](O)[C@@H]1O       DSS                8

Let us examine a further case.
### Prompt Given the entry CO[C@@H](C)Cn1c(=O)n(C)c2cnc3ccc(-c4cncc(C(C)(C)O)c4)cc3c21 , report its measured drug sensitivity score.
### Response 9.6

---

The molecules listed here are annotated with their drug sensitivity score.
tested on: OVCAR8; test: drug sensitivity score (DSS2) on cancer cell count; higher = more sensitive; extreme values may be limits of the assay; settings: co-cultured fibroblast: WI38; 72 h
Form entry: value (DSS) — number only.

Reference set, count: 7
RECORD_SMILES	drug sensitivity score / DSS
NC(=S)N/N=C/c1ncccc1N	9.3
CC[C@]1(O)C[C@@H]2CN(CCc3c([nH]c4ccccc34)[C@@](C(=O)OC)(c3cc4c(cc3OC)N(C)[C@H]3[C@@](O)(C(=O)OC)[C@H](OC(C)=O)[C@]5(CC)C=CCN6CC[C@]43[C@@H]65)C2)C1	5.2
Nc1cc(F)ccc1NC(=O)c1ccc(CNC(=O)/C=C/c2cccnc2)cc1	4.4
Nc1ncnc2c1c(COc1cccc(Cl)c1)nn2C1CCOCC1	0
COc1cc(OC2CCN(C)CC2)ccc1Nc1ncc2c(n1)n(C1CCCC1)c(=O)n2C	9.6
CC(C)(C)C[C@@H]1N[C@@H](C(=O)N[C@H]2CC[C@H](O)CC2)[C@H](c2cccc(Cl)c2F)[C@]12C(=O)Nc1cc(Cl)ccc12	0
Nc1nc(NC2CC2)cc(-c2cccc(Cl)c2Cl)n1	4.5

Next item in the queue.
### Prompt Look up drug sensitivity score: CONC(=O)c1ccccc1Nc1cc(Nc2cc(C)nn2C(C)C)ncc1Cl
### Response 4.2

---

system: OVCAR8; experiment: drug sensitivity score (DSS2) on cancer cell count; higher = more sensitive; extreme values may be limits of the assay; conditions: co-cultured fibroblast: WI38; 72 h
Assign true (1) whenever drug sensitivity score does not fall below 1 DSS; assign false (0) whenever it does.

COMPOUND	GROUP_LABEL
CCOC(=O)CCNc1cc(N2CCc3ccccc3CC2)nc(-c2ccccn2)n1 [GSK-J4]	false (0)

### Prompt Quick check, drug sensitivity score >= 1 DSS? CN1CCN(CCOc2cc(OC3CCOCC3)c3c(Nc4c(Cl)ccc5c4OCO5)ncnc3c2)CC1 [Saracatinib]
### Response true (1)

### Prompt Determine whether this compound has drug sensitivity score no lower than 1 DSS: O=C(Nc1cnn2ccc(N3CCC[C@@H]3c3cc(F)ccc3F)nc12)N1CC[C@H](O)C1 [Larotrectinib]
### Response true (1)

### Prompt Is drug sensitivity score at least 1 DSS? Consider C=CC(=O)N1CCC[C@@H](n2nc(-c3ccc(Oc4ccccc4)cc3)c3c(N)ncnc32)C1 [Ibrutinib]
### Response false (0)

### Prompt Assess whether reported drug sensitivity score for CCn1c(=O)c(-c2ccc(Cl)cc2Cl)cc2cnc(Nc3ccc(N4CCNCC4)c(F)c3)nc21 [FRAX486] sits at 1 DSS or higher.
### Response true (1)

### Prompt Could you tell me if the measured drug sensitivity score of C=C(c1ccc(C(=O)O)cc1)c1cc2c(cc1C)C(C)(C)CCC2(C)C [Bexarotene] reaches 1 DSS or more?
### Response false (0)

### Prompt # check: drug sensitivity score of Cc1sc2c(c1C)C(c1ccc(Cl)cc1)=N[C@@H](CC(=O)Nc1ccc(OCCOCCOCCOCCNc3cccc4c3C(=O)N(C3CCC(=O)NC3=O)C4=O)cc1)c1nnc(C)n1-2 (stereo partly specified) [ARV-825] is greater than or equal to 1 DSS
### Response true (1)

### Prompt Record NS(=O)(=O)NCCNc1nonc1/C(=N/O)Nc1ccc(F)c(Br)c1 [Epacadostat] ; criterion: drug sensitivity score no lower than 1 DSS. Met?
### Response false (0)

### Prompt Record O=C(O)CNC(=O)c1c(O)c2ccccc2n(Cc2ccccc2)c1=O [IOX-2] ; criterion: drug sensitivity score no lower than 1 DSS. Met?
### Response false (0)

### Prompt Check this compound for drug sensitivity score at or above 1 DSS: C[C@]12CC[C@@H]3c4ccc(O)cc4C[C@@H](CCCCCCCCC[S+]([O-])CCCC(F)(F)C(F)(F)F)[C@H]3[C@@H]1CC[C@@H]2O (stereo partly specified) [Fulvestrant]
### Response true (1)

### Prompt Quick check, drug sensitivity score >= 1 DSS? Cc1ccc(-n2nc(C(C)(C)C)cc2NC(=O)Nc2ccc(OCCN3CCOCC3)c3ccccc23)cc1 [Doramapimod]
### Response false (0)

### Prompt Exam item: decide whether the reported drug sensitivity score for NCCNc1ccc(NCCN)c2c1C(=O)c1ccncc1C2=O [Pixantrone] is at least 1 DSS.
### Response false (0)

### Prompt Reported drug sensitivity score at or above 1 DSS? C[C@]12C=CC(=O)C=C1CC[C@@H]1[C@@H]2[C@@H](O)C[C@@]2(C)[C@H]1CC[C@]2(O)C(=O)CO [Prednisolone]
### Response false (0)

### Prompt Form field: drug sensitivity score at least 1 DSS? Entry: O=C(/C=C/c1cccc(S(=O)(=O)Nc2ccccc2)c1)NO [Belinostat]
### Response true (1)

### Prompt Item CCCS(=O)(=O)Nc1ccc(F)c(C(=O)c2c[nH]c3ncc(-c4ccc(Cl)cc4)cc23)c1F [Vemurafenib] with drug sensitivity score of 1 DSS or above?
### Response true (1)

### Prompt Evaluate O=C1CCC(N2C(=O)c3ccccc3C2=O)C(=O)N1 (stereo unspecified) [Thalidomide] : drug sensitivity score at minimum 1 DSS?
### Response false (0)

---

Here, each record is paired with measured drug sensitivity score data.
system: KURAMOCHI; assay: drug sensitivity score (DSS2) on cancer cell count; higher = more sensitive; extreme values may be limits of the assay; conditions: co-cultured fibroblast: WI38; 72 h

COMPOUND	drug sensitivity score
CO[C@H]1C[C@@H]2CC[C@@H](C)[C@@](O)(O2)C(=O)C(=O)N2CCCC[C@H]2C(=O)O[C@H]([C@H](C)C[C@@H]2CC[C@@H](OP(C)(C)=O)[C@H](OC)C2)CC(=O)[C@H](C)/C=C(\C)[C@@H](O)[C@@H](OC)C(=O)[C@H](C)C[C@H](C)/C=C/C=C/C=C/1C [Ridaforolimus]	13.4 DSS
CC(=O)O[C@]1(C(C)=O)CC[C@H]2[C@@H]3C=C(C)C4=CC(=O)CC[C@]4(C)[C@H]3CC[C@@]21C [Megestrol acetate]	6 DSS
COc1ccc(-c2nc(N3CCOCC3)c3sc(CN(C)c4ncc(C(=O)NO)cn4)cc3n2)cn1 [CUDC-907]	28.6 DSS
CCCCOc1nc(N)c2c(n1)N(Cc1cccc(CN3CCCC3)c1)CC(=O)N2 [Vesatolimod]	0 DSS
O=C(CCCCCCC(=O)Nc1ccccc1)NO [Vorinostat]	9.7 DSS
C=CCn1c(=O)c2cnc(Nc3ccc(N4CCN(C)CC4)cc3)nc2n1-c1cccc(C(C)(C)O)n1 [AZD1775]	12.7 DSS
COC(=O)c1ccc([C@H]2c3[nH]c4ccccc4c3C[C@H](C(=O)OC)N2C(=O)CCl)cc1 [RSL3]	0 DSS
CC(C)NC[C@@H](C(=O)N1CCN(c2ncnc3c2[C@H](C)C[C@H]3O)CC1)c1ccc(Cl)cc1 [Ipatasertib]	0.5 DSS
O=C(Nc1ccc(OC(F)(F)Cl)cc1)c1cnc(N2CC[C@@H](O)C2)c(-c2cc[nH]n2)c1 [Asciminib]	0 DSS
Cc1cc(F)c(C(=O)Nc2cccc(-c3nncn3C(C)C)n2)cc1-n1cnc(C2CC2)c1 [Selonsertib]	0 DSS

### Prompt Would you mind telling me what drug sensitivity score value was observed for CNC(=O)c1ccc(-c2cnc3ncc(Cc4ccc5ncccc5c4)n3n2)cc1F [Capmatinib] ?
### Response 0 DSS

### Prompt I'd like to know its drug sensitivity score. The compound in question is CCOC(=O)C1=CCCC[C@H]1S(=O)(=O)Nc1ccc(F)cc1Cl [Resatorvid]
### Response 0.2 DSS

### Prompt Return reported drug sensitivity score; argument: CN(C)CCCOc1ccc(-c2ccc3ncc4c(c3c2)n(C2CCOCC2)c(=O)n4C)cn1 [AZD0156]
### Response 1.4 DSS

### Prompt Which drug sensitivity score value belongs to CC(C)[C@H]1C(=O)N[C@@H](CCCNC(=N)N)C(=O)NCC(=O)N[C@@H](CC(=O)O)C(=O)N[C@H](Cc2ccccc2)C(=O)N1C [Cilengitide] ?
### Response 3.3 DSS

### Prompt Can you share its drug sensitivity score? I mean this compound: Nc1cc(F)ccc1NC(=O)/C=C/c1cnn(C/C=C/c2ccccc2)c1 [RGFP966]
### Response 6 DSS

### Prompt I would be grateful if you could share the reported drug sensitivity score for O=C(Nc1cnn2ccc(N3CCC[C@@H]3c3cc(F)ccc3F)nc12)N1CC[C@H](O)C1 [Larotrectinib] .
### Response 0 DSS
